Reported inhibition at 10 µM values for the following molecules.
tested on: MALME-3M; assay: NCI-60 anticancer screening (SRB); format: cell-based; details: Homo sapiens, melanoma, one dose 10 μM, read-out: Growth Inhibition Percentage (GI %)

Molecule | Inequality Sign | inhibition at 10 µM / %
CCOC(=O)C1=C(N)N(c2ccc(Cl)cc2)C2=C(C(=O)CC(C)(C)C2)C1c1ccccc1OC (racemic) | = | 40
CCOC(=O)C1=C(N)N(c2ccc(C)cc2)C2=C(C(=O)CC(C)(C)C2)C1c1ccccn1 (racemic) [12b] | < | 10
CCOC(=O)C1=C(N)N(c2ccc(Cl)cc2)C2=C(C(=O)CC(C)(C)C2)C1c1ccccc1Br (racemic) | = | 18
CCOC(=O)C1=C(N)N(c2ccccc2)C2=C(C(=O)CC(C)(C)C2)C1c1cccnc1 (racemic) [12d] | < | 10
CCOC(=O)C1=C(N)N(c2ccc(C)cc2)C2=C(C(=O)CC(C)(C)C2)C1c1ccc(Cl)cc1 (racemic) | < | 10
CCOC(=O)C1=C(N)N(c2ccccc2)C2=C(C(=O)CC(C)(C)C2)C1c1ccc(Cl)cc1 (racemic) | = | 84
CCOC(=O)C1=C(N)N(c2ccc(C)cc2)C2=C(C(=O)CC(C)(C)C2)C1c1ccccc1OC (racemic) | < | 10

* * *

Entries and their measured inhibition at 10 µM follow.
system: MDA-MB-435; test: NCI-60 anticancer screening (SRB); assay type: cell-based; conditions: Homo sapiens; MDA-MB-435, melanoma; one dose 10 μM; read-out: Growth Inhibition Percentage (GI %)
Measurement Name: inhibition at 10 µM

Compound | Measurement Name | Test Result
CCOC(=O)C1=C(N)N(c2ccc(C)cc2)C2=C(C(=O)CC(C)(C)C2)C1c1ccccc1OC (racemic) | inhibition at 10 µM | < 10%
CCOC(=O)C1=C(N)N(c2ccc(Cl)cc2)C2=C(C(=O)CC(C)(C)C2)C1c1ccc(Cl)cc1Cl (racemic) [10d] | inhibition at 10 µM | 42%
CCOC(=O)C1=C(N)N(c2ccc(Cl)cc2)C2=C(C(=O)CC(C)(C)C2)C1c1ccc(F)cc1 (racemic) | inhibition at 10 µM | 11%
CCOC(=O)C1=C(N)N(c2ccc(Cl)cc2)C2=C(C(=O)CC(C)(C)C2)C1c1ccc([N+](=O)[O-])cc1 (racemic) | inhibition at 10 µM | < 10%
CCOC(=O)C1=C(N)N(c2ccccc2)C2=C(C(=O)CC(C)(C)C2)C1c1ccc(OC)cc1 (racemic) | inhibition at 10 µM | < 10%
CCOC(=O)C1=C(N)N(c2ccccc2)C2=C(C(=O)CC(C)(C)C2)C1c1ccc(F)cc1 (racemic) | inhibition at 10 µM | < 10%
CCOC(=O)C1=C(N)N(c2ccccc2)C2=C(C(=O)CC(C)(C)C2)C1c1ccccc1OC (racemic) | inhibition at 10 µM | < 10%

* * *

Compound | melting point
CCOC(=O)C1=C(N)N(c2ccccc2)C2=C(C(=O)CC(C)(C)C2)C1c1ccc(Cl)cc1 (racemic) | 215 to 217 °C
CCOC(=O)C1=C(N)N(c2ccc(C)cc2)C2=C(C(=O)CC(C)(C)C2)C1c1ccccc1OC (racemic) | 181 to 183 °C
CCOC(=O)C1=C(N)N(c2ccccc2)C2=C(C(=O)CC(C)(C)C2)C1c1ccccn1 (racemic) [12a] | 158 to 160 °C
CCOC(=O)C1=C(N)N(c2ccc(C)cc2)C2=C(C(=O)CC(C)(C)C2)C1c1ccc(OC)cc1 (racemic) | 181 to 183 °C
CCOC(=O)C1=C(N)N(c2ccc(Cl)cc2)C2=C(C(=O)CC(C)(C)C2)C1c1ccc(F)cc1 (racemic) | 256 to 258 °C
CCOC(=O)C1=C(N)N(c2ccccc2)C2=C(C(=O)CC(C)(C)C2)C1c1cccc(Cl)c1Cl (racemic) [10a] | 235 to 237 °C
CCOC(=O)C1=C(N)N(c2ccccc2)C2=C(C(=O)CC(C)(C)C2)C1c1ccccc1Br (racemic) | 220 to 222 °C
CCOC(=O)C1=C(N)N(c2ccc(Cl)cc2)C2=C(C(=O)CC(C)(C)C2)C1c1ccc(Cl)cc1 (racemic) | 220 to 222 °C
